test_method_notes: In vivo pharmacokinetics, plasma concentration by HPLC
Set-up: species or system female Lewis rats
measurement_conditions: female, Lewis, rat, po, 10 mg/kg
measured_metric: half-life
Could you kindly put the unit after your number?

Given the entry "CS(=O)(=O)Nc1cc2occ(NC=O)c(=O)c2cc1Oc1ccccc1" , report its measured half-life.
3.7 h

###

test_method_notes: In vivo pharmacokinetics, plasma concentration by HPLC
Parameters: species or system female Lewis rats
measurement_conditions: female, Lewis, rat, po, 10 mg/kg
measured_metric: AUC(0-t) (µg·h/mL)
Report the figure in µg·h/mL without appending any unit label.

Given the entry "CS(=O)(=O)Nc1cc2occ(NC=O)c(=O)c2cc1Oc1ccccc1" , report its measured AUC(0-t).
111

###

test_method_notes: In vivo pharmacokinetics, plasma concentration by HPLC
Set-up: species or system female Lewis rats
measurement_conditions: female, Lewis, rat, po, 10 mg/kg
measured_metric: Cmax (ng/mL)
Report the figure in ng/mL without appending any unit label.

Given the entry "CS(=O)(=O)Nc1cc2occ(NC=O)c(=O)c2cc1Oc1ccccc1" , report its measured Cmax.
12700
